I'd appreciate it if you could supply relative viability values for the items below.
- Tested on: NCI-H2087
- assayProcedure: relative viability (nuclei count vs DMSO), 5 days (fraction); higher = more cells survive
- testContext: first compound 6.325 µM
Answers are plain numbers.

- compound: "COCC1(CO)C(=O)C2CCN1CC2 (stereo unspecified) [PRIMA-1MET] + NC(=O)Nc1cc(-c2cccc(F)c2)sc1C(=O)N[C@H]1CCCNC1 [AZD7762] (partner 0.2 µM)"
  testValue: 1.25
- compound: "COCC1(CO)C(=O)C2CCN1CC2 (stereo unspecified) [PRIMA-1MET] + CCNC(=O)c1noc(-c2cc(C(C)C)c(O)cc2O)c1-c1ccc(CN2CCOCC2)cc1 [Luminespib] (partner 0.01 µM)"
  testValue: 0.181
- compound: "COCC1(CO)C(=O)C2CCN1CC2 (stereo unspecified) [PRIMA-1MET] + Cc1nc(NC(=O)N2CCC[C@H]2C(N)=O)sc1-c1ccnc(C(C)(C)C(F)(F)F)c1 [Alpelisib] (partner 2 µM)"
  testValue: 1.28
- compound: "COCC1(CO)C(=O)C2CCN1CC2 (stereo unspecified) [PRIMA-1MET] + COc1cc2c(Oc3ccc(NC(=O)C4(C(=O)Nc5ccc(F)cc5)CC4)cc3F)ccnc2cc1OCCCN1CCOCC1 [Foretinib] (partner 0.25 µM)"
  testValue: 1.02
- compound: "COCC1(CO)C(=O)C2CCN1CC2 (stereo unspecified) [PRIMA-1MET] + CC(C)C[C@H](NC(=O)[C@H](Cc1ccccc1)NC(=O)c1cnccn1)B(O)O [Bortezomib] (partner 0.002 µM)"
  testValue: 0.888

Inquiry: Read off the recorded relative viability for COCC1(CO)C(=O)C2CCN1CC2 (stereo unspecified) [PRIMA-1MET] + COc1cccc2cc(-c3nc([C@H]4CC[C@H](C(=O)O)CC4)n4ncnc(N)c34)[nH]c12 [OSI-027] (partner 0.5 µM)
Reply text: 0.433
